assayed system: HLA-A11 (A*1101) (Homo sapiens, UniProt P04439, A114D/D185E/E176A/F33Y/L180Q/S129P/T187R)
test protocol: biochemical
Type: binding
No end group written: not given here.
Measured IC50 by item
Record the value in nM, omitting the unit from your answer.

QTCALYWFR [Peptide 88.0361]
64
AQVLHVLKRK [Peptide 88.0141]
104
GTAKSVTCTR [Peptide 1556.31]
98
WTIAYIEYRK [Peptide 9017.0244]
62
LQGKLYYKFK [Peptide 88.0184]
130

Ask: Let me know recorded IC50 for VLCTYSPALNK [Peptide 1556.36] , thanks.
Result: 150
